test system: CAKI-1; test: NCI tumour cell line growth inhibition, 48 h
Calls of active or inactive are those of the source. Cut-off read from the data, not from the text of the source: active = GI50 up to about 1.1 µM and inactive = higher.
# GI50 annotations

Example molecules with recorded GI50:
INSERT INTO results (molecule, value) VALUES
  ('CCn1c(=O)c2c3cc(OC(C)=O)ccc3oc2c2ccc(OC(C)=O)cc21', '40 µM (inactive)'),
  ('CCN1CCC(O)(/C=C/c2ccc(C(C)C)cc2)C(C(=O)/C=C/c2ccc(C(C)C)cc2)C1 (stereo unspecified)', '4.34 µM (inactive)'),
  ('CSc1nc2cc(S(=O)(=O)N3CCCCC3)ccc2s1', '> 100 µM (inactive)'),
  ('CC(=O)O/C=C(/C=C/OC(C)=O)C(C/C=C(\C)C#CC=C(C)C)OC(C)=O (stereo unspecified)', '> 100 µM (inactive)'),
  ('CN(NC(=O)/C(=C/c1ccc(Cl)cc1)NC(=O)c1ccccc1)c1cn[nH]c(=O)c1Cl', '> 100 µM (inactive)'),
  ('CCOC(=O)c1csc(NC(=O)C(C)N2CCCC2)n1 (stereo unspecified)', '> 100 µM (inactive)'),
  ('COC(=O)C1CCCN1C(=O)OC(C)(C)C (stereo unspecified)', '> 100 µM (inactive)'),
  ('S=C(Nc1ccc2cn[nH]c2c1)Nc1ccc2cn[nH]c2c1', '> 100 µM (inactive)'),
  ('C[C@]12C[C@@H](c3ccccc3)Nc3ccccc3N1C(c1ccccc1)=NO2', '37.1 µM (inactive)'),
  ('COc1cccc2cc(C)c(C(=O)c3ccccc3)nc12', '> 100 µM (inactive)');

Here is the next item to consider.
Asked: Please look up its GI50: O=S(=O)(O)c1cc(O)c(/N=N/c2ccc3ccccc3c2O)c2ccccc12 [ERIOCHROME BLUE BLACK B]
Given back: 27 µM (inactive)
